# RUN_CONDITIONS: in n-pentanol, 323.15 K
PROPERTY_NAME: solubility (mole fraction)
Please state the value as a number alone, without comment.

Query block: solubility (mole fraction) for CC(C)[C@H](NC(=O)OCC1c2ccccc2-c2ccccc21)C(=O)O ?
Result block: 0.0582

====

# RUN_CONDITIONS: in isopentanol, 283.15 K
PROPERTY_NAME: solubility (mole fraction)
Please state the value as a number alone, without comment.

Query block: solubility (mole fraction) for CC(C)[C@H](NC(=O)OCC1c2ccccc2-c2ccccc21)C(=O)O ?
Result block: 0.0103

====

# RUN_CONDITIONS: in acetonitrile, 303.15 K
PROPERTY_NAME: solubility (mole fraction)
Please state the value as a number alone, without comment.

Query block: solubility (mole fraction) for CC(C)[C@H](NC(=O)OCC1c2ccccc2-c2ccccc21)C(=O)O ?
Result block: 0.00577
